List of z-score values.
# MEASUREMENT_DESCRIPTION: ATP-based viability of Huh7 replicon cells – cell-based, CellTiter-Glo luminescence, basal, 48 h, cytotoxicity control for HCV replication inhibitor project, primary screen (AID 1143);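 note: Huh7 hepatoma cells carrying a hepatitis C replication reporter with no stimulus; test concentration not given here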
# EXPERIMENTAL_CONTEXT: higher = more signal, called active from +8 up or from −8 down

SAMPLE_SMILES | z-score
C=C1C(=O)C=C2CN(C(=O)c3ccccc3)[C@@](Cc3ccc(OC)cc3)(C(=O)OC)[C@@H]12 | -3.68
COC(=O)[C@@]1(Cc2ccc(OC)cc2)[C@H]2c3cc(C(=O)N4CCCC4)n(Cc4ccc(C(F)(F)F)nc4)c3C[C@H]2CN1C(=O)c1ccccc1 | -2.36
Cc1ccc(N2C(=O)c3ccccc3[C@](C)(C(=O)NCCCN(C)C)[C@@H]2c2ccc(CO)cc2)nc1 | 0.368
O=C(N1CCOCC1)[C@@]1(Cc2ccccc2)COC(c2ccc(OCCCO)cc2)=N1 | -5.19

Entry source: PubChem BioAssay
